# test protocol: solvent given as SMILES
# test parameters: in CC#N

# compound, absorption maximum [nm]
measured = [
    ("CCc1c(C)[nH]c(C2=[N+]3C(=Cc4c(C)c(CC)c(/C=C/c5ccc(N(C)C)cc5)n4[B-]3(F)F)c3ccccc32)c1C", 713),
    ("CN(C)CCNCc1c2ccccc2cc2ccccc12", 365),
    ("CCCCNc1nn(-c2ccc(OC)cc2)nc1C#N", 328),
    ("CN(C)c1ccc(/C=C/C=C2\\CC/C(=C\\c3ccc(N(C)C)cc3)C2=O)cc1", 478),
    ("Cc1ccc(N(c2ccc(C)cc2)c2ccc3c4cccc5c(N(c6ccc(C)cc6)c6ccc(C)cc6)ccc(c6cccc2c63)c54)cc1", 496),
    ("N#Cc1ccc2c(c1)CCc1nc(-c3ccc([N+](=O)[O-])cc3)c3c(c1-2)CCc1cc(C#N)ccc1-3", 349),
    ("COc1ccc(-n2nc(C#N)c(N3CCC(N4CCCCC4)CC3)n2)cc1", 325),
    ("CCNc1cc2oc(=O)cc(C)c2cc1C", 354),
    ("c1ccc(-c2nc3c(c4c2-c2ccccc2CC4)-c2ccccc2CC3)cc1", 308),
    ("O=C(O)c1ccccc1Nc1ccccc1", 350),
    ("COC(=O)C(Cc1ccc2oc(-c3ccc(N(C)C)cc3)nc2c1)NC(=O)OC(C)(C)C (stereo not given)", 343.39),
    ("C[C@]12SC(=O)C=C1c1nc(-c3ccccc3O)[nH]c1C1=CC(=O)S[C@@]12C", 455),
    ("COc1ccc(N(c2ccc(OC)cc2)c2ccc3c4cccc5c(N(c6ccc(OC)cc6)c6ccc(OC)cc6)ccc(c6cccc2c63)c54)cc1", 508),
    ("CC(=O)Nc1ccccc1C(=O)OC1CC(C)CCC1C(C)C (stereo not given)", 310),
    ("CCc1c(C)[nH]c(C2=[N+]3C(=Cc4c(C)c(CC)c(C)n4[B-]3(F)F)c3ccccc32)c1C", 620),
    ("CC(C)c1ccc(/C=C/c2nc3ccc(N(C)C)cc3s2)cc1", 392),
    ("CCC1=C(C)c2cc3ccccc3c(=O)n2C1=O", 369),
    ("CCC1=C(C)C(=O)n2c1cc1c(C)c(CCC(=O)OC)c(C)n1c2=O", 420),
    ("CC(C)[Si]1(C(C)C)c2cc(C=O)ccc2-c2ccc(N(c3ccccc3)c3ccccc3)cc21", 392),
    ("O=C1CCCc2c1[nH]c1cc3c(cc21)OCO3", 335.33),
]

---

# test protocol: solvent given as SMILES
# test parameters: in C1CCCCC1
Decide by absorption maximum: equal to or exceeding 400 nm means t, less means f.

# mol, class label
data = [
    ("Cc1ccc(C2=C3C=CC(Cl)=[N+]3[B-](F)(F)n3c(Cl)ccc32)cc1", "t"),
    ("CCCCN1c2ccccc2Sc2cc(/C=C/C3=Nc4ccc5ccccc5c4C3(C)C)ccc21", "t"),
    ("CC1=[N+]2C(=C(c3ccc(N4CCOCC4)cc3)c3ccc(C)n3[B-]2(F)F)C=C1", "t"),
    ("CCC1=C(C)C2=Cc3c(I)c(I)c(I)n3[B-](F)(F)[N+]2=C1C", "t"),
    ("CC(C)(C)c1ccc(-c2ccc(C(C)(C)C)cc2)cc1", "f"),
    ("COc1ccc(/C=C/c2nc3ccccc3s2)cc1", "f"),
    ("O=CN1N=C(c2ccc(Br)cc2)C[C@@H]1c1ccccc1", "f"),
    ("CC1=[N+]2C(=C(Oc3cc(C)c4c(c3)CC[C@@](C)(CCC[C@H](C)CCC[C@H](C)CCCC(C)C)O4)c3ccc(C)n3[B-]2(F)F)C=C1c1cc2n(c1)[B-](F)(F)[N+]1=CC=CC1=C2c1c(C)cc(C)cc1C", "t"),
]
